System: UACC-257 melanoma
method: NCI-60 one-dose screen, 48 h (100 = growth as untreated, 0 = no growth, -100 = all killed)
experimental.conditions: 10 µM unless noted
Method: Cells are grown in 96 well plates and exposed to the test compound for 48 hours. Compounds are tested at a single concentration, which is 10^-5 M for most compounds. The reported endpoint is percent growth (GI% or GIPRCNT), where numbers from 0 - 100% represent growth inhibition, and numbers from -100% - 0 represent cell death. For example, a value of 40 represents 60% growth inhibition. A value of 0 means no net growth occurred over the course of the experiment. […]
Compounds without any hit were thinned out: in the full panel of roughly 83,000, 20% have a hit. The source made the active and inactive calls. Rule for the calls: active = growth percent below 10; inactive = the rest.
Would you kindly list growth for each of these molecules?

Worked examples follow.
CS(=O)(=O)c1ccc(C(=O)N/N=C/c2ccccc2O)cc1    22.6% (inactive)
O=C(Nc1ccc(-n2ccc3c(NC(=O)c4ccccc4)nccc32)cc1)c1ccc(N2CCOCC2)c(C(F)(F)F)c1    55% (inactive)
COc1ccc(-c2cc(-c3ccc(OC)cc3)c3sc(=O)[nH]c3n2)cc1    104% (inactive)
O=c1c2cc(Cl)ccc2oc2ccc(OCCCCCN3CCCCCC3)cc12    83.7% (inactive)
Oc1ccc(-c2nc3ccccc3s2)cc1CN(Cc1ccccn1)Cc1ccccn1    -0.146% (active)

Would you be so kind as to report growth for each listed record?
1. CCOC(=O)Cn1c(-c2nonc2NC(=O)c2ccccc2F)nc2ccccc21
2. CS(=O)(=O)c1ccc(C(=O)N/N=C/c2ccc3c(c2)OCO3)cc1

1. 72.1% (inactive)
2. 59.1% (inactive)

State recorded growth for all listed molecules.
1. Cn1cnc([N+](=O)[O-])c1S(=O)(=O)Oc1ccccc1
2. Clc1ccc(-c2cnc3nonc3n2)s1
3. O=C1NN(C(=O)c2ccccc2)C(c2ccc(Cl)c(Cl)c2)=C/C1=C\c1ccccc1[N+](=O)[O-]

["90.9% (inactive)", "64.4% (inactive)", "35.4% [6.75 µM] (inactive)"]

For every listed record, write down its growth.
1. Cc1cccc(N=NC(=S)NNc2cccc(C)c2)c1
2. CC(C)c1ccc(-c2cnc3nonc3n2)cc1
3. c1ccc(-c2nnn(-c3ccccc3)n2)cc1
4. Cc1ccc(C)c2c1SC1=NNC(Oc3ccc(Cl)cc3)=C(C#N)C(=N)N12

1. 105% (inactive)
2. 52% (inactive)
3. 103% (inactive)
4. 101% (inactive)

Count: 3. Required value per item: growth.
1. CCC1N=C(N)N=C(N)N1c1ccc(Cl)cc1 (stereo unspecified)
2. COc1cc2c(c(OC)c1O)C(=O)C(OC)C(c1ccc(O)c(O)c1)O2 (stereo unspecified)
3. O=C(Nc1ccccc1)c1cc2ccccc2s1

["88.1% (inactive)", "69.1% (inactive)", "95.1% (inactive)"]

// for each molecule in input: emit growth
1. CC1=C(/C=C/C(C)=C/C=C(C(=O)O)\C(C)=C\C(=O)O)C(C)(C)CCC1
2. COc1ccc2c(c1)OC1=C(C(=O)OC1)C2c1cc(OC)c2c(c1)OCCO2 (stereo unspecified)
3. COc1cccc(/C(C)=N/NC(=O)CSc2nc3ccccc3c(=O)n2CCc2ccc(S(N)(=O)=O)cc2)c1
4. FC(F)(F)c1nn[nH]n1

1. 92.4% (inactive)
2. 61% (inactive)
3. 45.2% (inactive)
4. 110% (inactive)

Could you tell me growth for each of these molecules? They are listed below.
1. CCn1c(=O)c(C(=O)NCCCO)c(O)c2ccccc21
2. O=C(NCCN1CCCC1)n1cc(-c2ccncc2)c(-c2cc(O)cc(Cl)c2)n1
3. COc1ccc2[nH]cc(C3(c4c[nH]c5ccc(OC)cc45)C(=O)Nc4ccc(Cl)cc43)c2c1
4. Cc1ccc(Nc2cc(Cl)c([N+](=O)[O-])cc2[N+](=O)[O-])cc1
5. NS(=O)(=O)c1ccc(CCn2c(SCC(=O)N/N=C/c3cccnc3)nc3ccccc3c2=O)cc1

125% (inactive)
43.4% (inactive)
86.5% (inactive)
73.6% (inactive)
107% (inactive)
